Target: T1, human TNFR1 (human, UniProt P19438 30-455)
T1 construct: whole, on cells
T1 sequence (looked up): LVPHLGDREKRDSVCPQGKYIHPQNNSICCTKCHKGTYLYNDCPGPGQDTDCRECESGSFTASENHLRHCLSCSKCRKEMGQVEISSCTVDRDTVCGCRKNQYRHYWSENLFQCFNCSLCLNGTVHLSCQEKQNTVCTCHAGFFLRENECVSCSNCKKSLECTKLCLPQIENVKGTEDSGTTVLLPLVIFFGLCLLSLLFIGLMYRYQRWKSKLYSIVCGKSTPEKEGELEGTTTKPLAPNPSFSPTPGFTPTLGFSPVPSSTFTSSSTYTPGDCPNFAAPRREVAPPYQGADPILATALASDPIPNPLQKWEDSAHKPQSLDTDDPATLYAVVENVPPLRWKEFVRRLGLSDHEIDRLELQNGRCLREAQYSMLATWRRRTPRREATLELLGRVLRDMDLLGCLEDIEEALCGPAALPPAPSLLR
Test: flow cytometry, HEK293 transfectants
value-kind: binding result

INSERT INTO assay_data (binder, result) VALUES
  ('33H9 (antibody, IgG4, V domains shown, also called 4897-1) VH: QVQLVESGGGVVQPGRSLRLSCAASGFTFSSHGMHWVRQPPGKGLEWVAVIWYDGSNEYYGDSVKGRFTISRDNSKNTLYLQMNSLRVEDTAVYYCTRGGGHWNYEGHYYGMDVWGQGTTVTVSS VL: QAVPTQPSSLSASPGASASLTCTLRSGINVGSSRIYWYQQKPGSPPQFLLRYTSDSDKLQGSGVPSRFSGSKDASANAGLLLISGLQSEDEADYYCMIWHSSAVVFGGGTKLTVLG', 'no binding'),
  ('33H6 (antibody, IgG4, V domains shown, also called 4883-1) VH: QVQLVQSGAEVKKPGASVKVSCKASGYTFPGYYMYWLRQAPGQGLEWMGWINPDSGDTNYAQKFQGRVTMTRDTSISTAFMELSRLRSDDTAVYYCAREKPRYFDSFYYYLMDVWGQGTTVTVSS VL: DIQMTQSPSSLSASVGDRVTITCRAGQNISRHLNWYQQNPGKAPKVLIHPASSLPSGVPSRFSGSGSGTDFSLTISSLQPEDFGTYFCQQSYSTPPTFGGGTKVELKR', 'no binding'),
  ('36F3 (antibody, IgG4, V domains shown, also called 4891-1) VH: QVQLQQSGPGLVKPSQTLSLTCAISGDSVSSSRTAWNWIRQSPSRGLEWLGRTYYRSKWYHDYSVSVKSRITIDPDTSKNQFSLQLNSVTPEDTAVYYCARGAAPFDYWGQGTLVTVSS VL: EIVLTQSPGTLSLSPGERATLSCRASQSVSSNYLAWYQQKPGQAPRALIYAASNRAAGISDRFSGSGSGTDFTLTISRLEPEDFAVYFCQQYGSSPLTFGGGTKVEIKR', 'no binding');
